Items are presented alongside their recorded Req (RU).
Test system: mAb 7D8
EXPERIMENTAL_PROTOCOL: Surface plasmon resonance of mAb 7D8 binding to amino-coupled peptopes
CONDITIONS: Langmuir with Mass Transfer; 7D8 2.7 nM
Write the answer as a number in RU, unit excluded.

Here are 3 sequences together with their reported answers.
RECORD_SEQUENCE	UNIT_ANNOTATION	Req (RU)
KAQKAQAKQAKQAQKAQKAQAKQAKQAQHEDT [p75, KAQKAQAKQAKQAQKAQKAQAKQAKQAQHEDT]	RU	500
KAQKAQAKQAKQAQKAQKAQAKQAKQGGGHEDT [p76, KAQKAQAKQAKQAQKAQKAQAKQAKQGGGHEDT]	RU	191
KAQKAQAKQAKQAQKAQKAQAKQAKQGPGHEDT [p77, KAQKAQAKQAKQAQKAQKAQAKQAKQGPGHEDT]	RU	192

Would you kindly look at the next entry?
Notebook: KAQKAQAKQAKQAQKAQKAQAKQAKQVTVHEDT [p78, KAQKAQAKQAKQAQKAQKAQAKQAKQVTVHEDT] , Req (RU) read as 326

* * *

ASSAY_TARGET: mAb 7D8
EXPERIMENTAL_PROTOCOL: Surface plasmon resonance of mAb 7D8 binding to amino-coupled peptopes
CONDITIONS: Langmuir; 7D8 2.7 nM; read-out: KD
Items are presented alongside their recorded pKd.
// pKd is dimensionless: -log10 of concentration (M)

RECORD_SEQUENCE	ASSAY_TARGET	RESULT_TYPE	ENDPOINT_VALUE
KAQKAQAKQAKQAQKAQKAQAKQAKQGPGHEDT [p77, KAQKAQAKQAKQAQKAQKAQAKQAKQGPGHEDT]	mAb 7D8	pKd	7.02
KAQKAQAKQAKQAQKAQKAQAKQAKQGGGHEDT [p76, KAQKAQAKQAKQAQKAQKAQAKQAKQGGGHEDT]	mAb 7D8	pKd	8.65

Notebook: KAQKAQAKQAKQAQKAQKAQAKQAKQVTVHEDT [p78, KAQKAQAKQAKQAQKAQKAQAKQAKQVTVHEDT] , pKd read as 8.61

Notebook: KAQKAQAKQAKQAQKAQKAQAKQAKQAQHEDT [p75, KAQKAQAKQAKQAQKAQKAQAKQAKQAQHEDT] , pKd read as 8.20

* * *

System: mAb 7D8
EXPERIMENTAL_PROTOCOL: Surface plasmon resonance of mAb 7D8 binding to amino-coupled peptopes
CONDITIONS: Langmuir; 7D8 2.7 nM
Items are presented alongside their recorded ka.
Write the answer as a number in M⁻¹ s⁻¹, unit excluded.

Here are 3 sequences together with their reported answers.
RECORD_SEQUENCE	ka / M⁻¹ s⁻¹
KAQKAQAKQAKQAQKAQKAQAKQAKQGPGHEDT [p77, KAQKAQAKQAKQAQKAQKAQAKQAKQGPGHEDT]	51900
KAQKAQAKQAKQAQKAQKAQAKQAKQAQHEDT [p75, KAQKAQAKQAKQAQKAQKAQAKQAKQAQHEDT]	369000
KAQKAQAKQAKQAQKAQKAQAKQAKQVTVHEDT [p78, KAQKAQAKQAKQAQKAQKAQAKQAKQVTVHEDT]	2.42e+06

Would you kindly look at the next entry?
Notebook: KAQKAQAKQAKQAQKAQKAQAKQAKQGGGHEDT [p76, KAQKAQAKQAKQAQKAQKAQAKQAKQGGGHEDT] , ka read as 2.95e+06

* * *

Tested on: mAb 7D8
EXPERIMENTAL_PROTOCOL: Surface plasmon resonance of mAb 7D8 binding to amino-coupled peptopes
CONDITIONS: Langmuir; 7D8 2.7 nM
Experimental: Analyses were performed using a BIAcore X surface plasmon resonance instrument (GE Healthcare) and all reagents were obtained from GE Healthcare. […] Binding data were extracted from the sensorgram, aligned, and analyzed using the BIAevaluation software by fitting to the following binding models (i) Langmuir, (ii) Langmuir with mass transfer, and (iii) Interaction of a bivalent analyte [A+B→AB; AB+B→AB2].
Items are presented alongside their recorded Rmax (RU).
Put down the number, then write its unit next to it.

Here are 3 sequences together with their reported answers.
RECORD_SEQUENCE	Rmax (RU)
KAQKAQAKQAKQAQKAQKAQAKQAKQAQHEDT [p75, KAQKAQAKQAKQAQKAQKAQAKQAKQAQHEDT]	2.18E+03 RU
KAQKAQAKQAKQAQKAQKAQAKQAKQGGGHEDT [p76, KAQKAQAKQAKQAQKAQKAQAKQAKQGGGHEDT]	351 RU
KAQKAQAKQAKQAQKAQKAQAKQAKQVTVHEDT [p78, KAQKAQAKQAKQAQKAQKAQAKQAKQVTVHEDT]	633 RU

Notebook: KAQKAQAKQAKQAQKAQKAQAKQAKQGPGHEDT [p77, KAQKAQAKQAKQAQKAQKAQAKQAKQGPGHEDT] , Rmax (RU) read as 8.16E+03 RU

* * *

Items are presented alongside their recorded kd1.
ASSAY_TARGET: mAb 7D8
EXPERIMENTAL_PROTOCOL: Surface plasmon resonance of mAb 7D8 binding to amino-coupled peptopes
CONDITIONS: Bivalent Analyte; 7D8 2.7 nM

RECORD_SEQUENCE	kd1
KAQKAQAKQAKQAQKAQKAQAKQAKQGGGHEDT [p76, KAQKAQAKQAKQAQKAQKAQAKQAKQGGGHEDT]	0.0736 s⁻¹
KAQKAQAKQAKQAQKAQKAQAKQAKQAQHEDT [p75, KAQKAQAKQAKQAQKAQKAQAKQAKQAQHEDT]	0.0674 s⁻¹
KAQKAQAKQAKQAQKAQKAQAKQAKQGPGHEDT [p77, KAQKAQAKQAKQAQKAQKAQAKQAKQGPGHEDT]	0.0295 s⁻¹

Would you kindly look at the next entry?
Notebook: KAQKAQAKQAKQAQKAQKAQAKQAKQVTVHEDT [p78, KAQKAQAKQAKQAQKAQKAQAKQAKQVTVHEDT] , kd1 read as 0.00972 s⁻¹

* * *

Items are presented alongside their recorded Kd.
ASSAY_TARGET: mAb 7D8
EXPERIMENTAL_PROTOCOL: Surface plasmon resonance of mAb 7D8 binding to amino-coupled peptopes
CONDITIONS: Langmuir with Mass Transfer; 7D8 2.7 nM; read-out: KD
Write the answer as a number in nM, unit excluded.

Here are 3 sequences together with their reported answers.
RECORD_SEQUENCE	RESULT_TYPE	ENDPOINT_VALUE
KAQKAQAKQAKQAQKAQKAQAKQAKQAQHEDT [p75, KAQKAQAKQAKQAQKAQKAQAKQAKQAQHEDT]	Kd	1.43
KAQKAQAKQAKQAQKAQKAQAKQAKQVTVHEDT [p78, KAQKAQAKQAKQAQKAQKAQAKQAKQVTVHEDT]	Kd	1.46
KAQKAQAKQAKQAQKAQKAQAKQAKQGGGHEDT [p76, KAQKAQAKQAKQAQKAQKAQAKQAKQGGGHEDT]	Kd	1.58

Notebook: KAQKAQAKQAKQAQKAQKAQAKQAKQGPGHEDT [p77, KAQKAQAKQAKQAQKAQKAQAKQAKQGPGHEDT] , Kd read as 3.33

* * *

Items are presented alongside their recorded ka1.
Tested on: mAb 7D8
EXPERIMENTAL_PROTOCOL: Surface plasmon resonance of mAb 7D8 binding to amino-coupled peptopes
CONDITIONS: Bivalent Analyte; 7D8 2.7 nM
Write the answer as a number in M⁻¹ s⁻¹, unit excluded.

RECORD_SEQUENCE	ASSAY_TARGET	UNIT_ANNOTATION	ka1
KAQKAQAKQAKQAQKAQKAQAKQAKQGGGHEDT [p76, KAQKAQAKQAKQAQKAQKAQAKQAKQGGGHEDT]	mAb 7D8	M⁻¹ s⁻¹	609000
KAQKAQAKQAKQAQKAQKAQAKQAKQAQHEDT [p75, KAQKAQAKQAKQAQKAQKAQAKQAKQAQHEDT]	mAb 7D8	M⁻¹ s⁻¹	85300
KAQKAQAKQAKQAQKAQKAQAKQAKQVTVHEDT [p78, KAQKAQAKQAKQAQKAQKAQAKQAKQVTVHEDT]	mAb 7D8	M⁻¹ s⁻¹	63700

Would you kindly look at the next entry?
Notebook: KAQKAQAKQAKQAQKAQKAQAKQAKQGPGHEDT [p77, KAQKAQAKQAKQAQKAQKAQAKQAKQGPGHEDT] , ka1 read as 44600

* * *

Test system: mAb 7D8
EXPERIMENTAL_PROTOCOL: Surface plasmon resonance of mAb 7D8 binding to amino-coupled peptopes
CONDITIONS: Langmuir; 7D8 2.7 nM
Items are presented alongside their recorded KA.

Here are 3 sequences together with their reported answers.
RECORD_SEQUENCE	KA
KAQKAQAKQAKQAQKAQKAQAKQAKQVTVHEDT [p78, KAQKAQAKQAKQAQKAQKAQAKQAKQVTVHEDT]	4.05e+08 M⁻¹
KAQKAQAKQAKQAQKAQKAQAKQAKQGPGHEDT [p77, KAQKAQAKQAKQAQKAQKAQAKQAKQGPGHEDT]	1.04e+07 M⁻¹
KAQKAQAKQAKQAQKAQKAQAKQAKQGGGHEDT [p76, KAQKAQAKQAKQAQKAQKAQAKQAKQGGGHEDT]	4.43e+08 M⁻¹

Notebook: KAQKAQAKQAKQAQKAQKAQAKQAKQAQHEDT [p75, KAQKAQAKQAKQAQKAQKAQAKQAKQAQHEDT] , KA read as 1.59e+08 M⁻¹
